Test Details: Cytotoxicity activity against human HepG2 cells assessed by CellTiter-Glo luminescent cell viability assay.
Type: toxicity, cell-based
Parameters: assay stage confirmatory assay, source tissue liver
Stated Conditions: HepG2 cells, read-out: IC50 relative
Calls of active or inactive are those of the source. The rule behind the calls is not given here.
Pick one: active, inactive

// query For this compound, state the assay outcome: "O=[N+]([O-])c1ccc(Sc2cccc[n+]2[O-])c2nonc12"
// result active

// query Now the compound "CCS(=O)(=O)c1ccc(CC(=O)Nc2cc(Cl)c(-c3ccccc3OC(F)(F)F)c(Cl)c2)cc1"
// result inactive

// query Now the compound "CCc1ccc(-c2cc3c(=O)n(CC(=O)NCCN(CC)CC)ncn3n2)cc1"
// result active

// query Now the compound "O=C(Nc1ccccc1O)c1cccc(NC(=O)c2cccs2)c1"
// result active

// query Now the compound "COc1cccc(N2CCN(C(=O)C3CCN(c4nc5cccnc5n(C)c4=O)CC3)CC2)c1"
// result active

// query Now the compound "CN(c1ccccc1)S(=O)(=O)c1ccc(C(=O)N2CCN(CCOc3ccccc3)CC2)cc1"
// result active

// query Now the compound "CCN(Cc1nc2cc(OC)c(OC)cc2c(=O)[nH]1)C(=O)c1ccc2c(c1)OCO2"
// result active

// query Now the compound "CCCCn1nnnc1Cn1ncc(Cl)c(Cl)c1=O"
// result active

// query Now the compound "CC(=O)NCc1ccc(C(=O)Cn2ncc(Cl)c(Cl)c2=O)cc1"
// result active

// query Now the compound Cc1cc(OCC(O)CN2CCN(C)CC2)cc(C)c1Cl (stereo not given)
// result inactive

// query Now the compound "O=C(Nc1cccnc1)N1CCC(Cc2cccc(Oc3ccc(C(F)(F)F)cn3)c2)CC1"
// result active

// query Now the compound "Oc1c(Cl)cc(Cl)cc1Sc1cc(Cl)cc(Cl)c1O"
// result inactive

// query Now the compound "C[C@H](O)CN1CCC(CNCc2cccc(C(F)(F)F)c2)CC1"
// result inactive

// query Now the compound "Cc1ccc(S(=O)(=O)N2CCN(c3cc(-n4ccnc4C)ncn3)CC2)cc1C"
// result active

// query Now the compound "COc1ccc(N(C(=O)Nc2c(C)cccc2C)c2cc(Nc3ccc(N4CCN(C)CC4)cc3)ncn2)c(OC)c1"
// result active

// query Now the compound "CSc1cccc(NS(=O)(=O)c2ccc3c(c2)CCN3C(C)=O)c1"
// result active

// query Now the compound "CCC1(CC)CCN(c2ncnc3[nH]ccc23)CC1"
// result active

// query Now the compound "CCN(CC)CCCNC(=O)C1CCN(c2nc3ccccc3n(Cc3ccccc3)c2=O)CC1"
// result active

// query Now the compound "COc1ccc2c(O[C@@H]3C[C@H]4C(=O)N[C@]5(C(=O)NS(=O)(=O)C6CC6)C[C@H]5/C=C\CCCCN(C)C(=O)[C@@H]4C3)cc(-c3nc(C(C)C)cs3)nc2c1C"
// result active

// query Now the compound "Cc1cc(O)c(-c2ccc([C@@H](C)CN(C)C)cc2)c2c1[nH]c(=O)c1sccc12"
// result active
